# Protocol Text: Caffeine pharmacokinetics in saliva/plasma of untreated human volunteers (baseline)
# Format: in vivo
# Experimental Setup: male, human, plasma (calculated from saliva concentrations), po, 200 mg, caffeine 200 mg single oral dose, untreated volunteers, read-out: AUC0-inf UT
Value Type: AUC(0-inf)

Q) Dear colleague, I am looking for the recorded AUC(0-inf) of the following compound: `Cn1c(=O)c2c(ncn2C)n(C)c1=O`
A) 33500 to 55800 ng·h/mL
